Entry source: the METLIN SMRT retention time set (Domingo-Almenara et al. 2019)

protocol-notes: gradient 5% acetonitrile 3 min, to 50% in 2 min, to 85% in 15 min, held 3 min, 100 µL/min
condition-summary: column: Zorbax Extend-C18 2.1 x 50 mm; eluents: water / acetonitrile, 0.1% formic acid
readout-type: RP-LC retention time (s)

| compound | result-value |
| --- | --- |
| O=C(Nc1cccc(Cl)c1F)C1CC(=O)N(c2ccc3c(c2)CCN3C(=O)C2CC2)C1 (centres undefined) | 831 |
| CN1CCN(CCCNC(=O)c2ccc3c(c2)N(C)C(=O)C2CCCCN32)CC1 (centres undefined) | 575 |
| CCCN1CCN(C(=O)C2CCN(S(=O)(=O)c3ccc4c(c3)NC(=O)C(C)S4)CC2)CC1 (centres undefined) | 593 |
| CC(=O)NCc1csc(C2CCN(C(=O)COc3ccc(Cl)cc3)CC2)n1 | 708 |
| CCSc1nnc(-c2nn(C)c3c2CN(C(=O)c2ccccc2Cl)CC3)n1C | 747 |
| COc1ccc(-c2noc(C3CC(=O)N(c4ccc(C)cc4)C3)n2)cc1OC (centres undefined) | 885 |
| COc1ccc(Cc2nn3c(Cc4ccc(OC)cc4)nnc3s2)cc1 | 913 |
| CCC(C)NC(=O)C1(c2ccc(NS(C)(=O)=O)cc2)CCCCC1 (centres undefined) | 736 |
| Cn1cc(S(=O)(=O)N2CCC(C(=O)NC3CCCCCC3)CC2)cc1C(=O)N1CCCC1 | 770 |

---

protocol-notes: gradient 5% acetonitrile 3 min, to 50% in 2 min, to 85% in 15 min, held 3 min, 100 µL/min
condition-summary: column: Zorbax Extend-C18 2.1 x 50 mm; eluents: water / acetonitrile, 0.1% formic acid
readout-type: RP-LC retention time (s)

| molecule | readout-type | result-value |
| --- | --- | --- |
| CN1C2CCC1CC(OC(c1ccccc1)c1ccccc1N)C2 (stereo not given) | RP-LC retention time | 752 |
| Cc1nc([C@@H]2CN(C(=O)c3cc(C4CC4)[nH]n3)C[C@H]2C(N)=O)n[nH]1 | RP-LC retention time | 540 |
| Cc1ccc(-c2cn3c(CC(=O)Nc4ccc(F)cc4C)csc3n2)cc1C | RP-LC retention time | 862 |
| Cc1noc(-c2ccc(-n3cnc(C(=O)NC4CCCCC4)c3)nc2)n1 | RP-LC retention time | 883 |
| CCCn1c2ccccc2c2cnn(CC(=O)NCCN3CCCCC3C)c(=O)c21 (stereo not given) | RP-LC retention time | 680 |

---

protocol-notes: gradient 5% acetonitrile 3 min, to 50% in 2 min, to 85% in 15 min, held 3 min, 100 µL/min
condition-summary: column: Zorbax Extend-C18 2.1 x 50 mm; eluents: water / acetonitrile, 0.1% formic acid
readout-type: RP-LC retention time (s)

Below, each entry is followed by its recorded RP-LC retention time result.
| molecule | measurement-unit | result-value |
| --- | --- | --- |
| CCCn1cc(S(=O)(=O)Nc2ccc(C)c(F)c2)c2cccnc21 | s | 921 |
| Cc1nc(CCNC(=O)[C@H]2CCCN2C(=O)c2ccccc2)cs1 | s | 622 |
| Cc1cccc(-c2noc(Cn3ncn4nc(-c5cccs5)cc4c3=O)n2)c1 | s | 1100 |
| Cc1nc(-c2cc(S(=O)(=O)N3CCC(C(=O)Nc4cccc(C#N)c4)CC3)c(C)s2)no1 | s | 949 |
| O=C(NCc1ccc(F)cc1)C1CCN(c2cncnc2N2CCCC2)CC1 | s | 659 |
| Cc1ccc(NC(=O)Cn2nc3c(Oc4ccccc4C)nccn3c2=O)cc1C | s | 923 |

P. COc1ccc(NC(=O)C2CC(=O)N(c3n[nH]c4cccc(F)c34)C2)cc1Cl (centres undefined)
Q. Cc1ccc(CNS(=O)(=O)c2cc(-c3nc(C(C)(C)C)cs3)cs2)o1
stdin: Field: lower RP-LC retention time | Options: P / Q Please indicate the selected item by its label.
stdout: P
(P: 752 s, Q: 1190 s)

---

protocol-notes: gradient 5% acetonitrile 3 min, to 50% in 2 min, to 85% in 15 min, held 3 min, 100 µL/min
condition-summary: column: Zorbax Extend-C18 2.1 x 50 mm; eluents: water / acetonitrile, 0.1% formic acid
readout-type: RP-LC retention time (s)

| molecule | RP-LC retention time / s |
| --- | --- |
| CN(C)CCn1cc(C(=O)NCc2ccco2)ccc1=O | 590 |
| Cc1cc(NC(=O)N2CCC(c3cc(N)on3)CC2)ccc1Br | 790 |
| CCOc1ccc(C(=O)c2ccc(Cl)c(N)c2)cc1 | 935 |
| CN(C)C(=O)c1ccc2c(c1)N(CC(=O)NCCCN1CCCC1=O)C(=O)C1CCCCN21 (stereo unspecified) | 619 |
| CCNc1cc(C)nc(N2CCN(C(=O)CC)CC2)n1 | 567 |
| O=C(Nc1nc2cccc(-c3ccc(CN4CCS(=O)(=O)CC4)cc3)n2n1)C1CC1 | 687 |

---

protocol-notes: gradient 5% acetonitrile 3 min, to 50% in 2 min, to 85% in 15 min, held 3 min, 100 µL/min
condition-summary: column: Zorbax Extend-C18 2.1 x 50 mm; eluents: water / acetonitrile, 0.1% formic acid
readout-type: RP-LC retention time (s)

Below, each entry is followed by its recorded RP-LC retention time result.
| compound | RP-LC retention time [s] |
| --- | --- |
| Cc1cnc(C(=O)N(C)C2CCc3nn(CC4CC4)c(=O)n3CC2)cn1 (stereo not drawn) | 618 |
| Cc1ccc(C(=O)COc2cc(O)c3c(=O)cc(-c4ccccc4)oc3c2)cc1 | 1210 |
| Cc1cnc(CC2CCN(C(=O)C(C)C)C2)n1C(C)C (stereo not drawn) | 578 |
| O=C(Cc1ccc(Cl)cc1)N1CCN(c2ncccc2-c2nnc(C3CC3)o2)CC1 | 872 |
| CCS(=O)(=O)c1nc2ccc(NS(=O)(=O)CCc3ccccc3)cc2s1 | 918 |

A. CCC(=O)N1CCc2cc(N3CC(C(=O)Nc4ccccc4OC)CC3=O)ccc21 (stereo not drawn)
B. O=C(Nc1ccc(F)cc1)c1c(O)c2cccnc2n(-c2cccc(F)c2)c1=O
stdin: For this pair, A and B , which shows a numerically higher RP-LC retention time? Please indicate the selected item by its label.
stdout: B

---

protocol-notes: gradient 5% acetonitrile 3 min, to 50% in 2 min, to 85% in 15 min, held 3 min, 100 µL/min
condition-summary: column: Zorbax Extend-C18 2.1 x 50 mm; eluents: water / acetonitrile, 0.1% formic acid
readout-type: RP-LC retention time (s)

a. CC(NC(=O)c1ccco1)c1nc(-c2ccc(N3CCCCCC3)cc2)no1 (stereo not given)
b. CC(=O)c1cccc(NC(=O)N2CCN(Cc3ccccc3)c3ncccc32)c1
stdin: Field: lower RP-LC retention time | Options: a / b Please indicate the selected item by its label.
stdout: b
(b: 732 s, a: 1110 s)

---

protocol-notes: gradient 5% acetonitrile 3 min, to 50% in 2 min, to 85% in 15 min, held 3 min, 100 µL/min
condition-summary: column: Zorbax Extend-C18 2.1 x 50 mm; eluents: water / acetonitrile, 0.1% formic acid
readout-type: RP-LC retention time (s)

P. CCS(=O)(=O)N1CC(=O)N(c2ccc(F)cc2C)C(C)(C(=O)NC2CCCCC2)C1 (stereo not given)
Q. CCC1=C(C(=O)Nc2ccccc2)C2CCCC3(C2)NCCCN13 (stereo not given)
stdin: Field: lower RP-LC retention time | Options: P / Q Please indicate the selected item by its label.
stdout: Q

A. Cc1nc(-c2csc(S(=O)(=O)N3CCC(C(=O)Nc4ccccn4)CC3)c2)no1
B. CCn1cc2c3c(cccc31)CN(C(=O)Nc1cccc(Cl)c1F)CC2
stdin: For this pair, A and B , which shows a numerically higher RP-LC retention time? Please indicate the selected item by its label.
stdout: B
(B: 1060 s, A: 740 s)

a. O=c1ccc(-c2ccc3c(c2)OCO3)nn1CCc1nc(-c2ccccn2)no1
b. COc1cccc(Cn2nc(-c3nc(-c4cccc(Cl)c4)no3)ccc2=O)c1
stdin: Field: lower RP-LC retention time | Options: a / b Please indicate the selected item by its label.
stdout: a

---

protocol-notes: gradient 5% acetonitrile 3 min, to 50% in 2 min, to 85% in 15 min, held 3 min, 100 µL/min
condition-summary: column: Zorbax Extend-C18 2.1 x 50 mm; eluents: water / acetonitrile, 0.1% formic acid
readout-type: RP-LC retention time (s)

Below, each entry is followed by its recorded RP-LC retention time result.
| compound | RP-LC retention time, s |
| --- | --- |
| Cc1ccc2nc(-c3ccccc3O)c(Nc3ccc4c(c3)OCCO4)n2c1 | 684 |
| Cn1cc(C(=O)NCc2nc(-c3ccccc3)no2)nn1 | 661 |
| CCc1nc2cc(N3CCC(C(=O)NC(C)CC)CC3)cnc2nc1CC (stereo not given) | 758 |

P. CCC(=O)N1c2ccc(S(=O)(=O)N3CCCCC3)cc2CC1C(=O)NCCc1ccccc1 (stereo not given)
Q. Cc1cc(C)c(NS(=O)(=O)c2c(C)cc(C)cc2C)c(C)c1
stdin: For this pair, P and Q , which shows a numerically higher RP-LC retention time? Please indicate the selected item by its label.
stdout: Q

P. COc1ccc(-c2nc(N(CC(C)C)CC(C)C)c3ccccc3n2)cc1
Q. O=C(NCc1ccc2c(c1)OCO2)c1ccc2ncnc(N3CCCC3)c2c1
stdin: For this pair, P and Q , which shows a numerically higher RP-LC retention time? Please indicate the selected item by its label.
stdout: P
